Items are presented alongside their recorded log10 of EC50.
- system: Metabotropic glutamate receptor 5 (Rattus norvegicus)
- Sequence (P31424 whole entry): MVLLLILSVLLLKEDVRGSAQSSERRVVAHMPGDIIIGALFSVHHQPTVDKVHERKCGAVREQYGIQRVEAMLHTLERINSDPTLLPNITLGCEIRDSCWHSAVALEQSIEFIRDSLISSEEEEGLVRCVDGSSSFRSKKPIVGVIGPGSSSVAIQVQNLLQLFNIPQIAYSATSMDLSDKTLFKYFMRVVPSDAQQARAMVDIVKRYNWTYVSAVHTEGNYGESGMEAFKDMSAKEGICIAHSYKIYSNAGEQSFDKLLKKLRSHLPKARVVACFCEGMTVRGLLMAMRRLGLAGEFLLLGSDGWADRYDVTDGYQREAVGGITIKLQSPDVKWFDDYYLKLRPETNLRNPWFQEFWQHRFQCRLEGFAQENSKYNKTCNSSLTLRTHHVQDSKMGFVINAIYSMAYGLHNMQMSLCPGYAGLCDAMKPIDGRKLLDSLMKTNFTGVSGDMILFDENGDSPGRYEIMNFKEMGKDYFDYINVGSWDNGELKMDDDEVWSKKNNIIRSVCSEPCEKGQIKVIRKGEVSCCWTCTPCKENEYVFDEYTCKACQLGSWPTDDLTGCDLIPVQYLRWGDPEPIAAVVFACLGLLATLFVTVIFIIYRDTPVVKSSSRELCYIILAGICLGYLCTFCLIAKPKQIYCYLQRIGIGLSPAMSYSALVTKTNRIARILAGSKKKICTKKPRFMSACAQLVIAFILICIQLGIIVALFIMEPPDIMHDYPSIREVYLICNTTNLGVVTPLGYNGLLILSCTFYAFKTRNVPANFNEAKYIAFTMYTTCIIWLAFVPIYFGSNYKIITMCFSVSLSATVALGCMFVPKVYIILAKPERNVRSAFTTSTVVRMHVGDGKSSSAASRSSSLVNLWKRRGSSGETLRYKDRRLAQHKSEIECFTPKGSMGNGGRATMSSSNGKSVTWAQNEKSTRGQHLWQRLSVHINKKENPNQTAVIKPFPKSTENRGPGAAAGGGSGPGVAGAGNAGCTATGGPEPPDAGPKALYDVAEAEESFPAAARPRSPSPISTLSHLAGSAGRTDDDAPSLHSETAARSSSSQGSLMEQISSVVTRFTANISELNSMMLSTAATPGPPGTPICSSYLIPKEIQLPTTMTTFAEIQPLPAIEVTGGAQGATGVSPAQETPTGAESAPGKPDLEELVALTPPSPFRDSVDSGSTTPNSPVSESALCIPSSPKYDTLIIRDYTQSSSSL
- test.details: Positive allosteric modulation of rat mGluR5 stably expressed in HEK293 cells assessed as increase in intracellular calcium level by Fluo-4AM dye-based fluorescence assay
- Assay type: functional, cell-based
- measurement.conditions: read-out: EC50
property: log10 of EC50 (log10 of the value in nM)

structure.smiles.string | system | log10 of EC50
CC(C)[C@@H](C)NC(=O)c1ccc(C#Cc2cccc(F)c2)cn1 | Metabotropic glutamate receptor 5 (Rattus norvegicus) | 0.65
C[C@H](NC(=O)c1ccc(C#Cc2cccc(F)c2)cn1)C(C)(C)C | Metabotropic glutamate receptor 5 (Rattus norvegicus) | 1.72
Cc1cc(C(=O)N[C@H](C)C(C)(C)O)ncc1C#Cc1cccc(F)c1 | Metabotropic glutamate receptor 5 (Rattus norvegicus) | 2.38
C[C@@H](NC(=O)c1ccc(C#Cc2cccc(F)c2)cn1)C(C)(C)O | Metabotropic glutamate receptor 5 (Rattus norvegicus) | 0.69
O=C(NCC(F)(F)F)c1ccc(C#Cc2cccc(F)c2)cn1 | Metabotropic glutamate receptor 5 (Rattus norvegicus) | 2.35
CC(C)CNC(=O)c1ccc(C#Cc2cccc(F)c2)cn1 | Metabotropic glutamate receptor 5 (Rattus norvegicus) | 1.46
C[C@@H](NC(=O)c1ccc(C#Cc2cc(F)ccn2)cn1)C(C)(C)O | Metabotropic glutamate receptor 5 (Rattus norvegicus) | 1.56
C[C@@H](NC(=O)c1ccc(C#Cc2cccnc2)cn1)C(C)(C)O | Metabotropic glutamate receptor 5 (Rattus norvegicus) | 2.54
C[C@@H](NC(=O)c1ccc(C#Cc2ccc(F)cn2)cn1)C(C)(C)O | Metabotropic glutamate receptor 5 (Rattus norvegicus) | 1.45
CC(C)(C)CNC(=O)c1ccc(C#Cc2cccc(F)c2)cn1 | Metabotropic glutamate receptor 5 (Rattus norvegicus) | 1.22
C[C@@H](NC(=O)c1ccc(C#Cc2ccccn2)cn1)C(C)(C)O | Metabotropic glutamate receptor 5 (Rattus norvegicus) | 1.62
